Just for reference, the NIST ThermoML archive (doi:10.1016/j.jct.2012.09.017) is where these values come from.

# assay comment: activity coefficient (dimensionless); of the first substance listed, at infinite dilution; xn = mol fraction of the nth substance listed
# study conditions: 373.15 K; 101 kPa; Liquid; Chromatography; x1 = 0
measurement type: activity coefficient

Input: Give a short answer stating reported activity coefficient for COC(C)(C)C [2-methoxy-2-methylpropane] + CCCC[N+]1(C)CCCC1.O=C1O[B-]2(OC1=O)OC(=O)C(=O)O2 .
Output: 5.57

Input: Provide only the value of recorded activity coefficient for Cc1ccccc1 [toluene] + CCCC[N+]1(C)CCCC1.O=C1O[B-]2(OC1=O)OC(=O)C(=O)O2
Output: 2.4

Input: Look up and state reported activity coefficient for Cc1cccc(C)c1 [1,3-dimethylbenzene] + CCCC[N+]1(C)CCCC1.O=C1O[B-]2(OC1=O)OC(=O)C(=O)O2
Output: 3.55
